Entry source: PubChem BioAssay

Please go through the items and note down their inhibition.
Assay: VP16 transactivation inhibitors, counter-screen for SRC1 inhibitor project, cell-based, luminescence, high throughput (AID 588824)
Settings: cell-based VP16 transactivation luciferase luminescence; at 3.6 µM; stronger effect = higher value
Answers are plain numbers, in %.

Below, each entry is followed by its recorded inhibition result.
COMPOUND | PROPERTY_MEASURED | RECORDED_RESULT
COc1ccc(NC(=O)c2sc(=O)n(Cc3ccc(F)c(Cl)c3)c2C)cc1OC | inhibition | 53.8
CCCCCC[n+]1ccccc1/C=C/c1ccc(N(C)C)cc1 | inhibition | 86.2
CC(C)(C)c1ccc(-c2cc(-c3ccccc3O)[nH]n2)cc1 | inhibition | -28.4
C=C1C(=O)C23CCC4C(C)(C(=O)OC)CCCC4(C)C2CCC1(O)C3 (stereo not drawn) | inhibition | 53.7
COc1cccc(N2CCN(c3c(C#N)c(C(F)(F)F)nn3C)CC2)c1 | inhibition | 32.2
COc1ccc(CCNC(=O)[C@H](CCSC)NC(=O)N2CCn3c2nc2ccccc23)cc1OC | inhibition | -3.22
CN(C)/C=C/C(=O)c1ccc2noc(-c3ccccc3)c2c1 | inhibition | 33.7
O=C1NC(=O)C(c2ccc(F)cc2)N1 (stereo not drawn) | inhibition | -5.94
COC(C(=O)C(O)C(C)O)C1Cc2cc3cc(OC4CC(OC5CC(O)C(O)C(C)O5)C(O)C(C)O4)c(C)c(O)c3c(O)c2C(=O)C1OC1CC(OC2CC(OC3CC(O)C(OC)C(C)O3)C(O)C(C)O2)C(O)C(C)O1 (stereo not drawn) | inhibition | 92.2
Cc1cc(-c2ccc(F)cc2)n2ncc(-c3ccccc3)c2n1 | inhibition | -34.6

Hi there! I need inhibition for each item below, if you can.
1. COc1ccc(NC(=O)C2Cc3c(-c4ccc5c(c4)OCO5)ccnc3O2)cc1OC (stereo not drawn)
2. Cc1noc(/C=C/c2ccco2)c1S(=O)(=O)N1CCC(C(=O)Nc2ccc(Cl)cn2)CC1
3. COc1ccc2c(c1OC)C(=O)N1c3ccccc3C(=O)N(c3ccccc3)C21 (stereo not drawn)

Result string:
1. 34
2. 24.4
3. 2.1
